Molecular target: T1, recombinant human EpCAM extracellular domain (human, UniProt P16422 24-265)
T1 construct: extracellular domain; Plate-coated antigen of the ELISAs; also called human EpCAM ECD; recombinant EpCAM antigen
T1 sequence (looked up): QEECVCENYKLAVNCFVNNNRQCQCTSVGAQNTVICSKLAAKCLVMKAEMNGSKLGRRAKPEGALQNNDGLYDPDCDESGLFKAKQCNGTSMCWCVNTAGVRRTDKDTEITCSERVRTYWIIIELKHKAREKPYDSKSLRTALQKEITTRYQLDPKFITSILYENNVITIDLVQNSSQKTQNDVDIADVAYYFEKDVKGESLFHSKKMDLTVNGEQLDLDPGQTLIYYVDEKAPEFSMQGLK
Experiment: ELISA, human EpCAM, pH 7.4

| BINDER | UOM | EC50 |
| --- | --- | --- |
| BAP-105.4-01-05 (antibody, V domains shown, Humanized) VH: EVQLVQSGAEVKKPGATVKISCKVSGYTFTSYWMHWIRQPPGKGLEWIGYIRPSTGYTEYNQKFKDRFTISRDNSKNTLYLQMNSLRAEDTAVYYCGRGDNWVGFANWGQGTLVTVSS VL: EIVLTQSPDFQSVTPKEKVTITCSASSSISYMHWYQQKPGKAPKLLIYSTSNLASGVPDRFSGSGSGTDFTLKISRVEAEDVGVYYCHQWSTYETFGQGTKVEIK | µg/mL | 50 |
| BAP-105.4-03-02 (antibody, V domains shown, Humanized) VH: EVQLVQSGAEVKKPGESLRISCKGSGYTFTSYWMHWIRQSPSRGLEWLGYIRPSTGYTEYNQKFKDRVTISADKSISTAYLQWSSLKASDTAMYYCGRGDNWVGFANWGQGTLVTVSS VL: EIVMTQSPATLSVSPGERATLSCSASSSISYMHWYQQKPGKAPKLLIYSTSNLASGIPPRFSGSGYGTDFTLTINNIESEDAAYYFCHQWSTYETFGQGTKVEIK | µg/mL | 0.0487 |
| BAP-105.4-01-02 (antibody, V domains shown, Humanized) VH: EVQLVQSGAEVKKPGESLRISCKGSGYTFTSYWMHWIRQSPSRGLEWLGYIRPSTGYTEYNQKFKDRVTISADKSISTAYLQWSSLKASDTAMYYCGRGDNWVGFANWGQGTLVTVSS VL: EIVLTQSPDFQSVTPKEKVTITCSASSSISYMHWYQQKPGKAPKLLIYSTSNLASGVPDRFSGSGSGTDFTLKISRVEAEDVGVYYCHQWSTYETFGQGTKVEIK | µg/mL | 0.066 |
| BAP-105.4-02-01 (antibody, V domains shown, Humanized) VH: EVQLVQSGAEVKKPGATVKISCKVSGYTFTSYWMHWVRQAPGQGLEWMGYIRPSTGYTEYNQKFKDRFTISRDNSKNTLYLQMNSLRAEDTAVYYCGRGDNWVGFANWGQGTLVTVSS VL: EIVMTQSPATLSVSPGERATLSCSASSSISYMHWYQQKPGKAPKLLIYSTSNLASGVPSRFSGSGSGTEFTLTISSLQPDDFATYYCHQWSTYETFGQGTKVEIK | µg/mL | 114 |
